Measured pIC50 values are reported for all entries that follow.
Target: SARM1 (50-724) (Homo sapiens)
Sequence (Q6SZW1 50-724): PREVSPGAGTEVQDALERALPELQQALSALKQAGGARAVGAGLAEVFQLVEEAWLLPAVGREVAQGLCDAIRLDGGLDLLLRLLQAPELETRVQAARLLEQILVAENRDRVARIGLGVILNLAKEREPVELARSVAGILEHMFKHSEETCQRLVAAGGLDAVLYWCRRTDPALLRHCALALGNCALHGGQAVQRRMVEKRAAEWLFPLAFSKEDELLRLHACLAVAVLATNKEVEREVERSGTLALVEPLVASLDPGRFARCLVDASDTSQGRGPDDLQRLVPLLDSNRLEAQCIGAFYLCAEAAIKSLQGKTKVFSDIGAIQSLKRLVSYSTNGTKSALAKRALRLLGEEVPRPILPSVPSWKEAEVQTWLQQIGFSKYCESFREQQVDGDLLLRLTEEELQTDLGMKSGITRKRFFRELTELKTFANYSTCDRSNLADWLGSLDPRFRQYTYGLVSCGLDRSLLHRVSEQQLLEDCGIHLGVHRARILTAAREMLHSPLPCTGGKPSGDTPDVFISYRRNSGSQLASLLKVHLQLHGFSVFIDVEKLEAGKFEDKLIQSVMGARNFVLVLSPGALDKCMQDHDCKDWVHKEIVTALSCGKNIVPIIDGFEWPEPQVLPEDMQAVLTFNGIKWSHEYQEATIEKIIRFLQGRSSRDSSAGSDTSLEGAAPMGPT
pIC50: −log10 of the molar value.

[
  {
    "Compound": "FC(F)(F)Oc1cnccc1-n1cnnc1-c1nc2cc(C(F)(F)F)ccc2[nH]1",
    "pIC50": "≥ 7.00"
  },
  {
    "Compound": "CC(c1cc(F)c2[nH]c(-c3nncn3-c3cnccc3C(F)(F)F)nc2c1)c1ncco1 (centres unmarked)",
    "pIC50": "≥ 7.00"
  },
  {
    "Compound": "Cc1ccc2[nH]c(-n3c(-c4cccc(Cl)c4Cl)n[nH]c3=O)nc2c1",
    "pIC50": "< 6.00"
  },
  {
    "Compound": "Cc1nocc1-n1cnnc1-c1nc2cc(C(F)(F)F)ccc2[nH]1",
    "pIC50": "< 6.00"
  }
]

// query What measured pIC50 is associated with "NC(=O)Cn1cc(-c2cccc(F)c2Cl)c(-c2nc3cc(C(F)(F)F)ccc3[nH]2)cc1=O" on SARM1 (50-724) (Homo sapiens)?
// result ≥ 7.00

// query Do the same for "FC(F)(F)c1ccc2[nH]c(-c3nncn3-c3cnccc3C(F)(F)F)c(-c3ccncc3)c2c1" please
// result ≥ 7.00

// query Do the same for "Fc1cc(OC(F)F)cc2nc(-c3nncn3-c3cnccc3C(F)(F)F)[nH]c12" please
// result ≥ 7.00

// query Do the same for "Fc1c(C2CC(F)(F)C2)ccc2[nH]c(-c3nncn3-c3cnccc3C(F)(F)F)nc12" please
// result ≥ 7.00

###

Measured pIC50 values are reported for all entries that follow.
Target: SARM1 (50-724) (Homo sapiens, UniProt Q6SZW1)
Sequence (Q6SZW1 50-724): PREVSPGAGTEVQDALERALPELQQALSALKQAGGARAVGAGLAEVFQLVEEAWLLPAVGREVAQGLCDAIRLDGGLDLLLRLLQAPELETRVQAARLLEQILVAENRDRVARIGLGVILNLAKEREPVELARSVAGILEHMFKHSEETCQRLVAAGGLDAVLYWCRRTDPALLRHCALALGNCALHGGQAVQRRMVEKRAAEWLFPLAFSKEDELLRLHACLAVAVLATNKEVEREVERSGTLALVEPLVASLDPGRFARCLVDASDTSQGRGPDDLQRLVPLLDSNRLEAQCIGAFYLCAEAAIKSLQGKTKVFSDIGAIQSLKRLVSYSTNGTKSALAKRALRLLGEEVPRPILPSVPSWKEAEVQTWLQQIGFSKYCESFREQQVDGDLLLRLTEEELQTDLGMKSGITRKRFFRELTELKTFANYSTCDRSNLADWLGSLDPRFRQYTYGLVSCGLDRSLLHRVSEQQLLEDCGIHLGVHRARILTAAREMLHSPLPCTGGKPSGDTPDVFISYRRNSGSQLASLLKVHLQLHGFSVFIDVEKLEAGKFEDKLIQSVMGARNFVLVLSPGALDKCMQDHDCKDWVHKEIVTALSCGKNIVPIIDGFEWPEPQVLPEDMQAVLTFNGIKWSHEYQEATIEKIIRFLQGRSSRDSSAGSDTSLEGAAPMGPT
pIC50: −log10 of the molar value.

Solved cases below.
[
  {
    "Molecule": "Fc1ccc(-n2cnnc2-c2nc3cc(C(F)(F)F)ccc3[nH]2)c(Cl)c1F",
    "System under test": "SARM1 (50-724) (Homo sapiens, UniProt Q6SZW1)",
    "Reported": "≥ 7.00"
  },
  {
    "Molecule": "OCCOc1cc(-n2cnnc2-c2nc3cc(C(F)(F)F)ccc3[nH]2)c(OC(F)(F)F)cn1",
    "System under test": "SARM1 (50-724) (Homo sapiens, UniProt Q6SZW1)",
    "Reported": "≥ 7.00"
  },
  {
    "Molecule": "CCN(C)C(=O)c1ccc2[nH]c(-c3nncn3-c3ccc(F)c(F)c3Cl)nc2c1",
    "System under test": "SARM1 (50-724) (Homo sapiens, UniProt Q6SZW1)",
    "Reported": "< 6.00"
  },
  {
    "Molecule": "CC(C)(O)Cc1nnc(-c2nc3cc(C(F)(F)F)ccc3[nH]2)n1-c1cccc(F)c1Cl",
    "System under test": "SARM1 (50-724) (Homo sapiens, UniProt Q6SZW1)",
    "Reported": "≥ 7.00"
  },
  {
    "Molecule": "Cc1cncc(-n2cnnc2-c2nc3cc(C(F)(F)F)ccc3[nH]2)c1Cl",
    "System under test": "SARM1 (50-724) (Homo sapiens, UniProt Q6SZW1)",
    "Reported": "≥ 7.00"
  }
]

// query # input molecule: "Cc1nsc(-n2cnnc2-c2nc3cc(C(F)(F)F)ccc3[nH]2)c1Cl" ; wanted: its pIC50
// result 6.30 to 7.00

// query Do the same for CN1CCC(C)(c2ccc3[nH]c(-c4nncn4-c4ccc(F)c(F)c4Cl)nc3c2)C1=O (centres unmarked) please
// result 6.30 to 7.00

// query Do the same for "O=c1ccc(C(F)(F)F)c(-n2cnnc2-c2nc3cc(C(F)(F)F)ccc3[nH]2)[nH]1" please
// result ≥ 7.00
